Measured values drawn from patent US9624235B2 for this set.

molecular target: APE-1 activity in T98G cell nuclear lysates (Homo sapiens (Human), UniProt P27695); assay: Molecular beacon assay in T98G cell nuclear extracts
Sequence (P27695 whole entry, stated change not applied): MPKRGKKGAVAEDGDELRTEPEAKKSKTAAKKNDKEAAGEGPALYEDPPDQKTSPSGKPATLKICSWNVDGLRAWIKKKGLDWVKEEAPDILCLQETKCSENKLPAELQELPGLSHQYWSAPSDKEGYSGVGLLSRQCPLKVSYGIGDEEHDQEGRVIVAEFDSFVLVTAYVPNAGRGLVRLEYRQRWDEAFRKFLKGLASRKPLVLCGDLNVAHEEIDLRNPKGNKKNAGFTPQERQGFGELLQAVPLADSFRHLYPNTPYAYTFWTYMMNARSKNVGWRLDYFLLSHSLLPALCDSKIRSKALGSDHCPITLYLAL
Measured parameter: Ki (nM)
Provide the reading as a plain figure in nM.

Return Ki for the following compound: `C/C(=N\Nc1cc(C)nc2cc3c(cc12)OCO3)c1cn(C)n(-c2ccccc2)c1=O`
450

Return Ki for the following compound: `Cc1cc(N/N=C/c2ccc3c(c2)OCO3)c2cc3c(cc2n1)OCO3`
280

Return Ki for the following compound: `CCn1c2ccccc2c2cc(/C=N/Nc3cc(C)nc4cc5c(cc34)OCO5)ccc21`
210

Return Ki for the following compound: `COc1cccc(/C=N/Nc2cc(C)nc3cc4c(cc23)OCO4)c1`
240

====

Biological target: unmodified hairpin DNA
Assay: EtBr fluorescence titration with hairpin DNA
Method: Fluorescence and UV Spectrometry Binding Studies. The fluorescence spectra were measured at room temperature on a Cary Eclipse fluorescence spectrometer (Varian, Palo Alto, Calif.). The fluorescence properties of 1 and 4 were measured in 10 mM HEPES, 0.5 mM MgCl2, 100 mM KCl, 100 mM NaCl, 2% glycerol, in absence or presence of wild type (unmodified) hairpin DNA (5′-[…]-3′) or THF-modified hairpin DNA (5′-[…]-3′) or APE-1 protein. […]
Measured parameter: pKd
# pKd is unitless: minus log10 of the molar concentration; print number only

Report pKd on unmodified hairpin DNA for this entry: CC[n+]1c(-c2ccccc2)c2cc(N)ccc2c2ccc(N)cc21 [EtBr, ethidium bromide]
5.80

====

Answer each item with its documented pIC50.
molecular target: APE-1 (Homo sapiens (Human)); test: Gel-based excision assay for APE-1 inhibitors; format: biochemical; details: APE-1 cleaved fragment vs. full length DNA substrate
# pIC50 is unitless: minus log10 of the molar concentration; print number only

Report pIC50 on APE-1 (Homo sapiens (Human)) for this entry: C/C(=N\Nc1cc(C)nc2cc3c(cc12)OCO3)c1cn(C)n(-c2ccccc2)c1=O [Compound 1]
5.36

Report pIC50 on APE-1 (Homo sapiens (Human)) for this entry: CCn1c2ccccc2c2cc(/C=N/Nc3cc(C)nc4cc5c(cc34)OCO5)ccc21 [Compound 4]
5.39

====

Measured parameter: Kd (µM)
Provide the reading as a plain figure in µM.

Report Kd on APE-1 (Homo sapiens (Human), UniProt P27695) for this entry: CCn1c2ccccc2c2cc(/C=N/Nc3cc(C)nc4cc5c(cc34)OCO5)ccc21 [Compound 4]
6.15

====

target: APE-1 (Homo sapiens (Human), UniProt P27695); experiment: Molecular beacon assay for APE-1 endonuclease inhibition; type: biochemical; details: molecular beacon screen; read-out: Ki, inhibition curve FIG. 2(c)
Measured parameter: Ki (nM)
Provide the reading as a plain figure in nM.

Return Ki for the following compound: `CCn1c2ccccc2c2cc(/C=N/Nc3cc(C)nc4cc5c(cc34)OCO5)ccc21`
345

====

biological target: APE-1 (Homo sapiens (Human), UniProt P27695); experiment: Molecular beacon assay for APE-1 endonuclease inhibition; type: biochemical; details: molecular beacon assay, endonuclease activity; read-out: Ki APE-1 endonuclease inhibition
Measured parameter: Ki (µM)
Provide the reading as a plain figure in µM.

Return Ki for the following molecule: COc1ccc(C2C3=C(CC(C)(C)CC3=O)Oc3cc4c(cc32)OCO4)c(OC)c1 (stereo not shown)
32

Return Ki for the following molecule: `C/C(=N\Nc1cc(C)nc2ccc(C)cc12)c1cn(C)n(-c2ccccc2)c1=O`
10.9

Return Ki for the following molecule: `O=C(/C=C(/Nc1ccccc1)C(=O)c1ccccc1)c1ccccc1`
37

Return Ki for the following molecule: CC[n+]1c(-c2ccccc2)c2cc(N)ccc2c2ccc(N)cc21 [EtBr, ethidium bromide]
1.8

Return Ki for the following molecule: `Cc1cc(N/N=C/c2ccc([N+](=O)[O-])o2)c2cc3c(cc2n1)OCO3`
0.64

Return Ki for the following molecule: C=C(C[N+](=O)[O-])NC(CCCCNc1ccc([N+](=O)[O-])cc1N(O)O)C(=O)O (stereo not shown)
13

Return Ki for the following molecule: `Cc1cc(N/N=C/c2ccc3c(c2)OCO3)c2cc3c(cc2n1)OCO3`
0.19

Return Ki for the following molecule: `CCn1c2ccccc2c2cc(/C=N/Nc3cc(C)nc4cc5c(cc34)OCO5)ccc21`
0.12

Return Ki for the following molecule: `C/C(=N\Nc1cc(C)nc2cc3c(cc12)OCO3)c1cn(C)n(-c2ccccc2)c1=O`
0.18

Return Ki for the following molecule: `COc1cccc(/C=N/Nc2cc(C)nc3cc4c(cc23)OCO4)c1`
0.22

Return Ki for the following molecule: `C/C=C/C(=O)NCCCCNC(=O)/C=C/c1ccc([N+](=O)[O-])cc1`
17

Return Ki for the following molecule: `COc1ccc(/C(Cc2ccccc2)=N\Nc2ccc([N+](=O)[O-])c([N+](=O)[O-])c2)cc1`
6.7

Return Ki for the following molecule: `N=c1[nH]nc2nc(CC(=O)c3ccccc3[N+](=O)[O-])c(CC(=O)c3ccccc3[N+](=O)[O-])nn12`
4.9

====

biological target: APE-1 (Homo sapiens (Human), UniProt P27695); assay: Molecular beacon assay for APE-1 endonuclease inhibition; type: biochemical; details: molecular beacon assay, endonuclease activity; read-out: Ki APE-1 endonuclease inhibition (ND classes)
pKi: −log10 of the molar value.
Measured parameter: pKi

Return pKi for the following compound: Nc1ncnc2c1ncn2C1OC(C(=O)NCC(=O)O)C(O)C1O (centres unmarked) [Compound 16]
< 4.00

Return pKi for the following compound: CC(=O)N1N=C(c2cccc(NS(C)(=O)=O)c2)CC1c1cc2cc(C)c(C)cc2nc1Cl (centres unmarked) [Compound 30]
< 4.00

Return pKi for the following compound: C/C(=N\Nc1cc(C)c2ccccc2n1)c1cn(C)n(-c2ccccc2)c1=O [Compound 8]
< 4.00

Return pKi for the following compound: O=C(O)CC1(CC(=O)NCCc2c[nH]c3ccccc23)OCCO1 [Compound 18]
< 4.00

Return pKi for the following compound: O=C(O)C(Cc1c[nH]c2ccc(O)cc12)NCC1(O)OCC(O)C(O)C1O (centres unmarked) [Compound 19]
< 4.00

Return pKi for the following compound: CCOC(=O)CC/C(=C\NC(=O)c1ccccc1)NC(=O)c1ccccc1 [Compound 26]
< 4.00

Return pKi for the following compound: Cc1cc2cc3c(cc2n2c(SCC(=O)N4c5ccccc5CCc5ccccc54)nnc12)OCO3 [Compound 28]
< 4.00

Return pKi for the following compound: Cn1c(=N)[nH]c2c(nc(OCc3ccccc3)n2C2OC(O)C(O)C2O)c1=O (centres unmarked) [Compound 21]
< 4.00
